Biological target: EZH2 (Homo sapiens, UniProt Q15910)
Sequence (Q15910 whole entry): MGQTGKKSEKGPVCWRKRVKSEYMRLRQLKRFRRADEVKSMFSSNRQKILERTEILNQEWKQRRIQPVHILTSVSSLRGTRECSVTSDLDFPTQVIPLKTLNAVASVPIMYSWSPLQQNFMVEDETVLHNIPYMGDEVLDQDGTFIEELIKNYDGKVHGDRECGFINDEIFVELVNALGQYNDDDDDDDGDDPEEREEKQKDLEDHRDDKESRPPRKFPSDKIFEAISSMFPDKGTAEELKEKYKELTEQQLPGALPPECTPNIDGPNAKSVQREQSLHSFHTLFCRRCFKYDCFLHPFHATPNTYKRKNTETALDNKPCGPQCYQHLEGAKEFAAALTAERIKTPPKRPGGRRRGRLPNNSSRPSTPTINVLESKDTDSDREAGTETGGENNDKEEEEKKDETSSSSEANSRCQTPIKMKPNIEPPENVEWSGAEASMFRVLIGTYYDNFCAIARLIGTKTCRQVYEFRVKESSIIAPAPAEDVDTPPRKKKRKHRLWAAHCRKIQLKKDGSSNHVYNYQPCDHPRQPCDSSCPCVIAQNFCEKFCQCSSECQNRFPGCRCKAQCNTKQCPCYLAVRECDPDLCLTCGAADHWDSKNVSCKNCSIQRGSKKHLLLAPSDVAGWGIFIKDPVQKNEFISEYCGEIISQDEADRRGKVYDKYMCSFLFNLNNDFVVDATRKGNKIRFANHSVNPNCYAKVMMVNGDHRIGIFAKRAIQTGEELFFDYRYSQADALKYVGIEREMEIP
Sequence (O75530 whole entry partner): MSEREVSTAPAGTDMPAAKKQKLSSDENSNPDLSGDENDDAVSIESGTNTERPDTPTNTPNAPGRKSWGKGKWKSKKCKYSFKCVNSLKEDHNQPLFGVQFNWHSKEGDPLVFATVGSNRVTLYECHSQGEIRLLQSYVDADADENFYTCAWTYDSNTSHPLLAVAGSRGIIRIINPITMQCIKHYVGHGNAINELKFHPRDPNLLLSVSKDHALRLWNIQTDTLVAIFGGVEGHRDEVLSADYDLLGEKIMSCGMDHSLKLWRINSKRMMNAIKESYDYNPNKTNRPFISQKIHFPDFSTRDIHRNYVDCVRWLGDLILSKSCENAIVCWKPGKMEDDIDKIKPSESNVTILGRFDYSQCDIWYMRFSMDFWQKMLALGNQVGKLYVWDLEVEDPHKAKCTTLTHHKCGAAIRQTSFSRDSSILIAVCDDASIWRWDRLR
Sequence (Q15022 whole entry partner): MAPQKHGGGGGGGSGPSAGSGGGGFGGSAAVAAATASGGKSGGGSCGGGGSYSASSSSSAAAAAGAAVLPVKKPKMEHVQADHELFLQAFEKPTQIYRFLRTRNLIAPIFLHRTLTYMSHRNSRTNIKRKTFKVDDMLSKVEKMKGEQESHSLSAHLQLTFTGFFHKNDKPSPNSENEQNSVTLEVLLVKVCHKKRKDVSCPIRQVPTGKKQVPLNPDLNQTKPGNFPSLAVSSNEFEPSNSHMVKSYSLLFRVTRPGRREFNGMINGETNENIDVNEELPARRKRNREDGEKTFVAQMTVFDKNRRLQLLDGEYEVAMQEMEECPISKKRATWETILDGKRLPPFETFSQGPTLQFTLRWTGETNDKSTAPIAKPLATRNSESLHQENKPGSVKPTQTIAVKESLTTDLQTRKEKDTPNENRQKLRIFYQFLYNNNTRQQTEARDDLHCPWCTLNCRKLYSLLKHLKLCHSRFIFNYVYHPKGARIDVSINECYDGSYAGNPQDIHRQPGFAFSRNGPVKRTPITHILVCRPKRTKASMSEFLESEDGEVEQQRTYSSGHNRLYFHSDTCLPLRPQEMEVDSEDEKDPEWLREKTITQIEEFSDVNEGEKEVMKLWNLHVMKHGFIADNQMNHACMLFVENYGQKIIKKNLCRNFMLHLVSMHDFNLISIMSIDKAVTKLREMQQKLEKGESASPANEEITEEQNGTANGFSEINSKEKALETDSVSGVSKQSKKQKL
Assay: EZH2 assay: rPRC2 with biotinylated oligonucleosome substrates and 3H SAM, FlashPlate scintillation counting, IC50
Type: biochemical
Conditions: rPRC2, biotinylated oligonucleosome substrates, 3H SAM; read-out: EZH2 IC50
readout: IC50

Example results:
molecule: CC1(C)CC(NC(=O)c2ccc(S(=O)(=O)c3ccccc3)cc2)CC(C)(C)N1
value_measured: > 80 µM

molecule: CC1(C)CC(NC(=O)c2ccc(Oc3cccnc3C#N)cc2)CC(C)(C)N1
value_measured: 5 to 20 µM

molecule: CC(c1ccccc1C#N)N1CCN(C(=O)NC2CC(C)(C)NC(C)(C)C2)CC1 (stereo not shown)
value_measured: > 80 µM

molecule: CCOC(=O)c1cccc(Oc2ccc(C(=O)NC3CC(C)(C)NC(C)(C)C3)cc2)c1
value_measured: 20 to 80 µM

molecule: CC1(C)CC(NC(=O)c2ccc(Oc3cccc(-c4cccnc4)c3C#N)c(Cl)c2)CC(C)(C)N1
value_measured: < 5 µM

As a next step, examine the molecule that follows.
For the molecule `CC1(C)CC(NC(=O)c2ccc(-n3ccc4ccccc43)c(Cl)c2)CC(C)(C)N1` , give its reported IC50. 20 to 80 µM

---

Target: UniProt:Q15910
Assay: EZH2 assay: rPRC2 with biotinylated oligonucleosome substrates and 3H SAM, FlashPlate scintillation counting, IC50
Format: biochemical
Conditions: rPRC2, biotinylated oligonucleosome substrates, 3H SAM; read-out: EZH2 IC50
pIC50: −log10 of the molar value.
Parameter pIC50: see the listing below.

Would you please look over these solved cases?
given_smiles: CC1(C)CC(NC(=O)c2ccc(-n3ccc4c(O)cccc43)c(Cl)c2)CC(C)(C)N1
readout: pIC50
value_measured: > 5.30
--
given_smiles: CN1CCN(c2ccc(-c3cccc(Oc4ccc(C(=O)NC5CC(C)(C)NC(C)(C)C5)cc4Cl)c3C#N)cn2)CC1
readout: pIC50
value_measured: > 5.30
--
given_smiles: Cc1cccc(OCc2ccc(C(=O)NC3CC(C)(C)NC(C)(C)C3)cc2)c1
readout: pIC50
value_measured: 4.10 to 4.70

Identify pIC50 associated with the compound `O=C(c1ccc(Oc2ccccc2)cc1)N1CCN(c2ccccc2)CC1` < 4.10

---

Biological target: EZH2 (Homo sapiens, UniProt Q15910)
Assay: EZH2 assay: rPRC2 with biotinylated oligonucleosome substrates and 3H SAM, FlashPlate scintillation counting, IC50
Type: biochemical
Settings: rPRC2, biotinylated oligonucleosome substrates, 3H SAM; read-out: EZH2 IC50
readout: IC50

Completed entries (count: 4):
molecule: CC1(C)CC(NC(=O)c2ccc(Oc3cccc(-c4ccccn4)c3C#N)c(Cl)c2)CC(C)(C)N1
experimental_target: EZH2 (Homo sapiens, UniProt Q15910)
IC50: < 5 µM

molecule: CC1CC(NC(=O)c2ccc(Oc3ccccc3C#N)c(Cl)c2)CC(C)(C)N1 (stereo not shown)
experimental_target: EZH2 (Homo sapiens, UniProt Q15910)
IC50: 5 to 20 µM

molecule: CC(C#N)c1cccc(Oc2ccc(C(=O)NC3CC(C)(C)NC(C)(C)C3)cc2Cl)c1 (stereo not shown)
experimental_target: EZH2 (Homo sapiens, UniProt Q15910)
IC50: 20 to 80 µM

molecule: CC1(C)CC(NC(=O)c2ccc(Oc3cccc(C#N)c3)cc2)CC(C)(C)N1
experimental_target: EZH2 (Homo sapiens, UniProt Q15910)
IC50: 5 to 20 µM

Consider the molecule `Cc1ccc(-c2cccc(Oc3ccc(C(=O)NC4CC(C)(C)NC(C)(C)C4)cc3Cl)c2C#N)s1` and give its recorded IC50. < 5 µM

Return IC50 (reported value) for this molecule: `CC1(C)CC(NC(=O)c2ccc(Oc3ccc(F)cc3C#N)c(Cl)c2)CC(C)(C)N1` 5 to 20 µM

Return value of IC50 for input `Cc1ccc(OCc2ccc(C(=O)NC3CC(C)(C)NC(C)(C)C3)cc2)cc1` , no commentary. 20 to 80 µM

Give the value of IC50 reported for the following: CC1(C)CC(NC(=O)c2ccc(Oc3cccc(C4CCOC4)c3C#N)c(Cl)c2)CC(C)(C)N1 (stereo not shown) < 5 µM

Item `CNC(=O)c1ccccc1Oc1ccc(C(=O)NC2CC(C)(C)NC(C)(C)C2)cc1Cl` : provide IC50 20 to 80 µM

Read off the recorded IC50 for `CC1(C)CC(NC(=O)c2ccc(NC(=O)c3cccc(Br)c3)cc2)CC(C)(C)N1` 20 to 80 µM

Return the recorded IC50 value; entry: `CC1(C)CC(NC(=O)c2ccc(COc3cccc(N4CCNCC4)c3)cc2)CC(C)(C)N1` > 80 µM

Fill in reported IC50 for this entry: `N#Cc1ccccc1Oc1ccc(C(=O)N[C@H]2C[C@H]3CC[C@@H](C2)N3)cc1Cl` > 80 µM

Please list IC50 recorded for the molecule `CC1(C)CC(NC(=O)c2ccc(COc3cccc(-c4cccc(C#N)c4)c3)cc2)CC(C)(C)N1` 20 to 80 µM

Query IC50 for `Cc1cc(C(=O)NC2CC(C)(C)NC(C)(C)C2)ccc1Oc1cccc(Br)c1C#N` < 5 µM

Give reported IC50 value for CC1OC(=O)c2c(Oc3ccc(C(=O)NC4CC(C)(C)NC(C)(C)C4)cc3Cl)cccc21 (stereo not shown) < 5 µM

Supply recorded IC50 for `CC1(C)CC(NC(=O)c2ccc(Oc3cccc(-c4ccn[nH]4)c3C#N)c(Cl)c2)CC(C)(C)N1` here. < 5 µM

The values you see were collected from patent US20130310379A1.
